# TARGET_OF_ASSAY: T1, TGFβ2 (R&D Systems)
# T1 sequence (P61812 303-414, species assumed, looked up): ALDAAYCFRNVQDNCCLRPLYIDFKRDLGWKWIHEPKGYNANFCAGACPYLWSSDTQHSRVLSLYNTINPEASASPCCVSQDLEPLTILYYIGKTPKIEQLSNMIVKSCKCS
# ASSAY_COMMENT: cell-based or functional assay
MEASURED_ATTRIBUTE: pSmad-3, IC50 (nM)

affinity matured HcLb 259 (antibody, V domains shown, full IgG; constant regions not restated) VH: EVQLVQSGAEVKKPGASVKVSCKTSGYTFITYWMNWVRQAPGAGLDWMGQIFPAWGMTNYNEMFEGRVTLTADTSTSTAYMELSSLRAGDIAVYYCARGYGNYALDAMDYWGQGTLVTVSS VL: DIVMTQTPPSLSVSPRETASISCRASESVDSYGNSFMHWYLQKPGQSPQLLIYLASNLESGVSDRFSGSGSGTDFTLRISRVEANDTGVYYCQQNNEDPLTFGQ    1.37
affinity matured HcLb 189 (antibody, V domains shown, full IgG; also called canHcLb/S55W/D100Y + canHcLb/237ND/242TS) VH: EVQLVQSGAEVKKPGASVKVSCKTSGYTFITYWMNWVRQAPGAGLDWMGQIFPAWGSTNYNEMFEGRVTLTADTSTSTAYMELSSLRAGDIAVYYCARGYGNYALDAMDYWGQGTLVTVSS VL: DIVMTQTPPSLSVSPRETASISCRASESVDSYGNSFMHWYLQKPGQSPQLLIYLASNLESGVSDRFSGSGSGTDFTLRISRVEANDTGVYYCQQNDEDPLSFGQGTK    3.29
affinity matured HcLb 257 (antibody, V domains shown, full IgG; also called canHcLb/55SW/100DY/30IM/31TK + canHcLb/237ND/242TS) VH: EVQLVQSGAEVKKPGASVKVSCKTSGYTFMKYWMNWVRQAPGAGLDWMGQIFPAWGSTNYNEMFEGRVTLTADTSTSTAYMELSSLRAGDIAVYYCARGYGNYALDAMDYWGQGTLVTVSS VL: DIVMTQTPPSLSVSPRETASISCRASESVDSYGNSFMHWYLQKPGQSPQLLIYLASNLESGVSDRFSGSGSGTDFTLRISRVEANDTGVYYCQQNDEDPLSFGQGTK    2.02
affinity matured HcLb 263 (antibody, V domains shown, full IgG; constant regions not restated) VH: EVQLVQSGAEVKKPGASVKVSCKTSGYIFITYWMNWVRQAPGAGLDWMGQIFPAWGSTNYNEMFEGRVTLTADTSTSTAYMELSSLRAGDIAVYYCARGYGNYALDAMDYWGQGTLVTVSS VL: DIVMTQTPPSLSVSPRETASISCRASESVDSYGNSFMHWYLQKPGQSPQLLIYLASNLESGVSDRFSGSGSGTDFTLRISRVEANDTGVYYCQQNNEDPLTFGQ    2.1
affinity matured HcLb 262 (antibody, V domains shown, full IgG; constant regions not restated) VH: EVQLVQSGAEVKKPGASVKVSCKTSGYTFIKYWMNWVRQAPGAGLDWMGQIFPAWGSTNYNEMFEGRVTLTADTSTSTAYMELSSLRAGDIAVYYCARGYGNYALDAMDYWGQGTLVTVSS VL: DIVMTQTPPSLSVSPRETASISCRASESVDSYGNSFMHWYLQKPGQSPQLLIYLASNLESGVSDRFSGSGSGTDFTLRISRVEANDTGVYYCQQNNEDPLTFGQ    1.85
